Source of measurements: patent US20090270407A1

System: Puccinia recondita f. sp. tritici
Assay: Test B: wheat leaf rust, preventive spray on wheat seedlings, visual disease rating
Settings: 200 ppm; 100 = 100 % disease control, 0 = no disease control relative to controls
EXPERIMENTAL_ENDPOINT: Test B disease control rating (%)
Entry rule: numbers only, all in %.

Example cases with answers are listed next.
{"columns": ["MOLECULE", "U", "Test B disease control rating"],
 "data": [
  ["CN1OC(C)(c2cccnc2)CC1c1ccc(-c2ccccc2)cc1 (racemic) [Compound 11]", "%", 91],
  ["CN1OC(C)(c2cccnc2)CC1c1ccc(Br)c(F)c1 (stereo not drawn)", "%", 0],
  ["CN1OC(C)(c2cccnc2)CC1c1ccccc1Cl (stereo not drawn) [Compound 93]", "%", 0],
  ["CN1OC(C)(c2cccnc2)CC1c1cccc2c1OC(F)(F)O2 (stereo not drawn) [Compound 91]", "%", 0],
  ["CN1OC(C)(c2cccnc2)CC1c1ccc(Br)cc1Br (stereo not drawn) [Compound 84]", "%", 27],
  ["CN1OC(C)(c2cccnc2)CC1c1ccccc1Cl (stereo not drawn) [Compound 92]", "%", 0],
  ["CN1OC(C)(c2cccnc2)CC1c1cccc(Br)c1 (stereo not drawn) [Compound 64]", "%", 0],
  ["CN1OC(C)(c2cccnc2)CC1c1cccc(Cl)c1 (stereo not drawn) [Compound 77]", "%", 0]
]}

Query block: What Test B disease control rating value was documented for this molecule, Cc1ccccc1C1CC(C)(c2cccnc2)ON1C (mixture of isomers) ?
Result block: 17

Query block: CN1OC(C)(c2cccnc2)CC1c1ccccc1F (stereo not drawn) [Compound 78] ?
Result block: 0

Query block: CN1OC(C)(c2cccnc2)CC1c1ccc(Br)cc1 (racemic) [Compound 3] ?
Result block: 0

Query block: CN1OC(C)(c2cccnc2)CC1c1ccc(I)cc1 (racemic) [Compound 16] ?
Result block: 0

Query block: CN1OC(C)(c2cccnc2)CC1c1ccc(Cl)c(Cl)c1 (stereo not drawn) [Compound 6] ?
Result block: 0

Query block: CN1OC(C)(c2cccnc2)CC1c1ccc(Oc2ccc(F)cc2)cc1 (racemic) [Compound 19] ?
Result block: 91

====

# Test C disease control rating per entry
Tested on: Septoria nodorum
Assay: Test C: wheat glume blotch, preventive spray on wheat seedlings, visual disease rating
Conditions: 200 ppm; 100 = 100 % disease control, 0 = no disease control relative to controls
Entry rule: numbers only, all in %.

Example cases with answers are listed next.
{"columns": ["COMPOUND", "NUMERIC_RESULT"],
 "data": [
  ["CN1OC(C)(c2cccnc2)CC1c1ccccc1F (stereo not drawn) [Compound 78]", 0],
  ["CN1OC(C)(c2cccnc2)CC1c1cccc2ccccc12 (mixture of isomers)", 97]
]}

Okay, now this compound:
Query block: What Test C disease control rating value was documented for this compound, Cc1cccc(-c2ccc(C3CC(c4cccnc4)(C(F)(F)F)ON3C)cc2)c1C (racemic) ?
Result block: 0

====

# Test B disease control rating per entry
System: Puccinia recondita f. sp. tritici
Test: Test B: wheat leaf rust, preventive spray on wheat seedlings, visual disease rating
Details: 200 ppm; 100 = 100 % disease control, 0 = no disease control relative to controls
Entry rule: numbers only, all in %.

Example cases with answers are listed next.
{"columns": ["COMPOUND", "U", "Test B disease control rating"],
 "data": [
  ["CN1OC(c2cccnc2)(C(F)(F)F)CC1c1ccc(Br)cc1 (racemic)", "%", 89],
  ["COc1ccccc1C1CC(C)(c2cccnc2)ON1C (mixture of isomers)", "%", 0],
  ["CN1OC(C)(c2cccnc2)CC1c1ccc(Br)cc1Br (stereo not shown) [Compound 83]", "%", 0],
  ["CN1OC(C)(c2cccnc2)CC1c1ccc(Cl)c(Cl)c1 (stereo not shown) [Compound 5]", "%", 0],
  ["CN1OC(C)(c2cccnc2)CC1c1ccccc1F (stereo not shown) [Compound 79]", "%", 27]
]}

Query block: What Test B disease control rating value was documented for this compound, COc1ccc(C2CC(C)(c3cccnc3)ON2C)c2ccccc12 (mixture of isomers) ?
Result block: 0

Query block: COc1cc(Br)ccc1C1CC(C)(c2cccnc2)ON1C (stereo not shown) [Compound 85] ?
Result block: 0

Query block: CN1OC(C)(c2cccnc2)CC1c1ccc(-c2ccnn2CC(F)(F)F)cc1 (mixture of isomers) ?
Result block: 0

====

Tested on: Puccinia recondita f. sp. tritici
Assay: Test B: wheat leaf rust, preventive spray on wheat seedlings, visual disease rating
Conditions: 200 ppm; 100 = 100 % disease control, 0 = no disease control relative to controls
EXPERIMENTAL_ENDPOINT: Test B disease control rating (%)
Entry rule: numbers only, all in %.

Example cases with answers are listed next.
{"columns": ["COMPOUND", "U", "Test B disease control rating"],
 "data": [
  ["CN1OC(C)(c2cccnc2)CC1c1ccc(C(C)(C)C)cc1 (racemic) [Compound 8]", "%", 69],
  ["CN1OC(C)(c2cccnc2)CC1c1ccccc1I (mixture of isomers) [Compound 88]", "%", 27],
  ["CN1OC(C)(c2cccnc2)CC1c1ccc(C(C)(C)C)cc1 (racemic) [Compound 7]", "%", 34]
]}

Query block: What Test B disease control rating value was documented for this compound, CN1OC(C)(c2cccnc2)CC1c1cccc2ccccc12 (mixture of isomers) [Compound 62] ?
Result block: 17

Query block: CN1OC(C)(c2cccnc2)CC1c1cccc(F)c1 (centres unmarked) [Compound 94] ?
Result block: 0
